Source of measurements: patent US20180016324A1

Listed here: items and their measured pKd.
- Assayed target: T1, ZIKV (prM80E) with a C-terminal myc-myc-hexahistidine tag (Zika virus, UniProt A0A024B7W1 104-694)
- T1 construct: also called ZIKV (prM80E)-mmH; ZIKV-mmH
- Protocol summary: SPR, mAb captured, 37C
A value of pKd is the negative decimal logarithm of a concentration given in moles per litre.

Binder	Observed
H4H25633P (antibody, V domains shown) VH: EVQLVESGGGLVQPGRSLRLSCAASGFTFDDYAIHWVRQAPGKGLEWVSGISWNSGYLGYADSVKGRFTISRDNAKNSLYLQMNSLRAEDTAFYYCAKDVAWGSVRHVFEIWGQGTMVTVSS VL: EIVLTQSPGTLSLSPGERATLSCRASQTITGNQLAWYQQKPGQAPRLLIYFTSSRATGIPDRFSGSGSGTDFSLTISRLEPEDFAVYFCQQFGYSPWTFGQGTKVEIK	8.13

// returns reported pKd for input H4H25630P (antibody, V domains shown) VH: QVQLVQSGAEVKRPGASVKVSCKASDYTFTDYGISWVRQAPGQGLEWMGWFNTYNGNTNYAQKFQGRITMTTDTSTSTAYMELRSLRSDDTAIYYCARDWGLHYFENWGQGTLVTVSS VL: EIVLTQSPGTLSLSPGERATLSCRASQSVRNSYLAWYQQKPGQAPRLLIYGASSRDTGIPDRFSGSGSGTDFTLTISRLEPEDFAVYYCQQYGRSPWTFGQGTKVEIK
8.94
